These data points were gathered from PubChem BioAssay (NCI).

# Tested on: IGROV1 ovarian
# experiment_summary: NCI tumour cell line growth inhibition, 48 h
Reported TGI values follow for various compounds

compound	measurement_target	TGI
CC(C)(C)C1=CC(=C(P(=O)(O)O)P(=O)(O)O)C=C(C(C)(C)C)C1=O	IGROV1 ovarian	> 50 µM
O=C(/C=C\c1ccccc1O)c1ccc(O)cc1O	IGROV1 ovarian	> 100 µM
NNC(=O)C(=O)N/N=C(\CCCC(=O)Nc1ccc(Cl)cc1)CC(=O)c1ccc(F)cc1	IGROV1 ovarian	> 100 µM
CCOC(=O)C(C(=O)OCC)=C1SC(=Nc2ccccc2)C(=Nc2ccccc2)N1c1ccccc1	IGROV1 ovarian	> 100 µM

Given item CC1CC(N)=C(C#N)C1(C#N)C#N (stereo not given) , the value recorded as its TGI is > 100 µM

Memo: `Clc1c(Cl)[n+](Cc2ccc3ccccc3c2)cn1Cc1ccc2ccccc2c1` , reported TGI: 2.93 µM

Value of TGI reported for the compound `O=C(C(=O)c1cc2ccccc2[nH]1)c1cc2ccccc2[nH]1` is > 347 µM

# TGI (compound: CC1=C(C(=O)OC2CC3CCC2(C)C3(C)C)C2Nc3ccccc3N(C)C2O1 (stereo not given) ) is 6.97 µM

Looking up COc1cc(C(=O)NC2CCc3cc(OC)c(OC)c(OC)c3-c3ccc(OC)c(=O)cc32)cc(OC)c1OC (stereo not given) , I see its TGI listed as 71.6 µM

compound COc1cc2c(cc1OC(C)C)[C@H](c1ccc(Cl)cc1)N(c1ccc(N(C)CC3CCC(N4CCN(C)C(=O)C4)CC3)cc1)C(=O)C2 (stereo not given in full) , TGI observed: 4.13 µM

Briefly, TGI measured for `c1csc(-c2nn3c(C45CC6CC(CC(C6)C4)C5)nnc3s2)c1` : > 100 µM

Lab note: measured TGI of CC(=O)Nc1ccc2c3c(cc(O)c2c1)N(C(=O)CCCC(=O)N1CC(CCl)c2c1cc(O)c1cc(NC(C)=O)ccc21)CC3CCl (stereo not given) was > 100 µM

The value of TGI measured for the compound `CCCCc1ccc(N=C(N)N)cc1` turned out to be 71.7 µM

Data point: COC(=O)[C@]12CC3C=CC1N(C3)C(CBr)c1c2n(S(=O)(=O)c2ccccc2)c2ccccc12 (stereo not given in full) ; TGI = > 100 µM

The reported TGI of the compound `O=c1c2ccccc2sc2c(NCCCNCCO)nc3ccccc3c12` was 3.17 µM

Lookup result for `CC(C)C[C@H](NC(=O)CNC(=O)c1cc(Cl)ccc1Cl)B(O)O` ; measured TGI: 0.283 µM

Summary for this compound, `O=C(CCC(=O)Nc1ccc(Cl)c(Cl)c1)Cc1nc2ccccc2o1` : TGI is > 100 µM
